protocol_notes: Cytotoxicity against human HFL1 cells assessed as inhibition of cell growth incubated for 72 hrs by MTT assay
Type: toxicity, cell-based
metric_name: IC50 at 72 h (µM)

>>> data_value("C=C(C)[C@@H]1CC[C@]2(C(=O)OCCOC(=O)CCC(=O)OCc3cn(C)c4c3C(=O)C(OC)=CC4=O)CC[C@]3(C)[C@H](CC[C@@H]4[C@@]5(C)CC[C@H](O)[C@@](C)(COC(=O)C6CCNCC6)[C@@H]5CC[C@]43C)[C@@H]12")
6.83
>>> data_value("C=C(C)[C@@H]1CC[C@]2(C(=O)O)CC[C@]3(C)[C@H](CC[C@@H]4[C@@]5(C)CC[C@H](O)[C@@](C)(COC(=O)CCCC(=O)OCc6cn(C)c7c6C(=O)C(OC)=CC7=O)[C@@H]5CC[C@]43C)[C@@H]12")
3.23
>>> data_value("C=C(C)[C@@H]1CC[C@]2(C(=O)N3CCC(N4CCCCC4)CC3)CC[C@]3(C)[C@H](CC[C@@H]4[C@@]5(C)CC[C@H](O)[C@@](C)(COC(=O)CCC(=O)OCc6cn(C)c7c6C(=O)C(OC)=CC7=O)[C@@H]5CC[C@]43C)[C@@H]12")
6.56
>>> data_value("C=C(C)[C@@H]1CC[C@]2(C(=O)OCCOC(=O)CCC(=O)OCc3cn(C)c4c3C(=O)C(OC)=CC4=O)CC[C@]3(C)[C@H](CC[C@@H]4[C@@]5(C)CC[C@H](OC(=O)CCC(=O)N6CCNCC6)[C@@](C)(COC(C)=O)[C@@H]5CC[C@]43C)[C@@H]12")
6.79
